Reference source: paper PMC7156458

experimentalSystem: Aβ42 (Homo sapiens)
Sequence (P05067 672-713): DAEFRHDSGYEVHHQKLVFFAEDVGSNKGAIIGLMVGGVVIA
test: Th-T (thioflavin-T) assay of Aβ42 aggregation
Assay type: biochemical
studyConditions: measurement M9; source data, Ab alone and No Ab as controls
experimentalReadout: Th-T assay plate reading, mean of three wells (Supplementary Fig. 47)
Numbers only.

Please review the following examples before continuing.
C=C1CCC2C(C)(CCC=C(C)C)C(O)CCC2(C)C1Cc1c(OC)oc(C)c(C)c1=O (stereo not shown) [Compound 11] ... 0.404
C=C1CCC2C(C)(CC(=O)C=C(C)C)C(O)CCC2(C)C1Cc1c(OC)oc(CO)c(C)c1=O (stereo not shown) ... 0.6755

For each of the compounds below, note its Th-T assay plate reading, mean of three wells (Supplementary Fig. 47).
1. C=C1CC[C@H]2[C@]3(C)C[C@@H](C=C(C)C)O[C@H]3CC[C@]2(C)[C@@H]1Cc1c(OC)oc(CO)c(C)c1=O
2. C=C1CCC2C(C)(CCC=C(C)C)C(O)CCC2(C)C1Cc1c(O)c(C)c(C)oc1=O (stereo not shown) [Compound 9, higginsianin B]

*A*
0.6978
0.4754
